test_description: qHTS for Inhibitors of Plasmodium falciparum (7G8) proliferation (AID 504316); note: nearly all actives have a fitted effect of over 65% in size
measurement_context: P. falciparum 7G8 in erythrocytes, SYBR Green DNA, 72 h; series mostly up to 6.7 µM
Results filed as inconclusive are left out. The source made the active and inactive calls. Calls come from the whole dose curve; as a rule, active = well fitted inhibition curve with a large enough effect; inconclusive = small, poorly fitted or top-dose-only effect; inactive = flat fitted curve, though single readings scatter.
Answer with one of the outcomes 1.0 for active, 0.0 for inactive

Q) Status in this test for `COC(=O)C1=C(C(=O)OC)[C@@H]2N(C)c3ccccc3[C@@]23C[C@@H](C(=O)OC)N(S(=O)(=O)c2ccc(Br)cc2)C3=N1` ?
A) 1.0

Q) Status in this test for `COCCN1C(=O)N[C@@H](c2ccccc2)[C@H](C(=O)OC)[C@H]1C` ?
A) 0.0

Q) Status in this test for COc1ccc(C2=CC3=C(Br)C(=O)C(C)(OC(=O)c4cnc5ccccc5n4)C(=O)C3=CO2)cc1 (configuration not stated) ?
A) 0.0

Q) Status in this test for CC1(OC(=O)CCc2ccccc2)C(=O)C=C2C=C(c3ccc(C#N)cc3)N(CCc3ccccn3)C=C2C1=O (configuration not stated) ?
A) 0.0

Q) Status in this test for `COC(=O)C1=C(C(=O)OC)[C@@H]2N(C)c3ccccc3[C@@]23C[C@@H](C(=O)OC)N(S(=O)(=O)c2ccc(C#N)cc2)C3=N1` ?
A) 0.0

Q) Status in this test for `C=CCN1c2ccccc2[C@]23C[C@@H](C(=O)OC)N(C(=O)CC(C)C)C2=NC(C(=O)OC)=C(C(=O)OC)[C@H]13` ?
A) 0.0

Q) Status in this test for `Fc1ccccc1-c1nc(-c2ccccc2)oc1NC1CCCCC1` ?
A) 0.0

Q) Status in this test for C=CC1=C2C=C(C3CC3)N(CCCN(CC)CC)C=C2C(=O)C(C)(OC(=O)c2ccco2)C1=O (configuration not stated) ?
A) 0.0

Q) Status in this test for COCCN1C=C2C(=O)C(C)(OC(=O)CCC(=O)OC)C(=O)C(Br)=C2C=C1c1ccc(OC)cc1 (configuration not stated) ?
A) 0.0

Q) Status in this test for `COC(=O)N[C@@H](c1cccc(C)c1)[C@]1(C(C)=O)CCCC1=O` ?
A) 0.0

Q) Status in this test for `CCN1C(=O)N[C@@H](c2ccccc2)C(C(=O)OC)=C1C` ?
A) 0.0

Q) Status in this test for COC/C=C/C1=CC2=CC(=O)C(C)(OC(=O)c3cnc4ccccc4n3)C(=O)C2=CN1CCN1CCOCC1 (configuration not stated) ?
A) 0.0

Q) Status in this test for `COC(=O)C1=C(C(=O)OC)[C@@H]2N(C)c3ccccc3[C@@]23C[C@@H](CO)N(C(=O)c2ccco2)C3=N1` ?
A) 0.0

Q) Status in this test for COC(=O)CCC(=O)OC1(C)C(=O)C2=CN(CC3CC3)C(c3ccc(OC)cc3)=CC2=C(Br)C1=O (configuration not stated) ?
A) 0.0

Q) Status in this test for CCN(CC)CCCN1C=C2C(=O)C(C)(OC(=O)CCC(=O)OC)C(=O)C=C2C=C1C1CC1 (configuration not stated) ?
A) 0.0

Q) Status in this test for `COC(=O)C1=C(C(=O)OC)[C@@H]2N(Cc3ccccc3)c3ccccc3[C@@]23C[C@@H](C(=O)OC)N(C(=O)NCCBr)C3=N1` ?
A) 0.0

Q) Status in this test for `CC#CCN1c2ccccc2[C@]23C[C@@H](C(=O)OC)N(S(=O)(=O)c4cccs4)C2=NC(C(=O)OC)=C(C(=O)OC)[C@H]13` ?
A) 0.0

Q) Status in this test for `CCOC(=O)CN1C(=O)N[C@@H](c2cccs2)C(C(C)=O)=C1C` ?
A) 0.0

Q) Status in this test for `COCCN1C(=O)N[C@@H](c2cccc(F)c2)C(C(C)=O)=C1C` ?
A) 0.0

Q) Status in this test for CCC(=O)OC1(C)C(=O)C=C2C=C(CCCCNC(=O)OC(C)(C)C)OC=C2C1=O (configuration not stated) ?
A) 0.0

Q) Status in this test for CCCCC1=CC2=CC(=O)C(C)(OC(=O)CC)C(=O)C2=CN1CCCOC(C)C (configuration not stated) ?
A) 0.0

Q) Status in this test for CCCCC1=CC2=CC(=O)C(C)(OC(=O)CC)C(=O)C2=CN1c1cccc(C#N)c1 (configuration not stated) ?
A) 0.0
